- method.summary: NCI Yeast Anticancer Drug Screen. Data for the cln2 rad14 strain (AID 165);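 note: 0% = growth equal to vehicle treated cultures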
- condition.summary: S. cerevisiae cln2 rad14 strain, at 50.0 µM, hits give high values
Compounds without any hit were thinned out: in the full panel of roughly 79,000, 15% have a hit.
reported.endpoint: growth inhibition (%)

> print(dat)
                                    compound  reported.endpoint  unit.annotation  meas.value
 1  CC1CS(=O)(=O)CC(C)S1(=O)=O (configuration not stated)  growth inhibition                %        -4.3
 2  NC(=O)CNC(=O)C(CO)NC(=O)OCc1ccccc1 (configuration not stated)  growth inhibition                %        -6.2
 3  CCOC(=O)C(C(=O)OCC)C(NC(=O)Nc1cc(C(F)(F)F)ccc1OC)(C(F)(F)F)C(F)(F)F  growth inhibition                %        3.45
 4  Cc1ccc(S(=O)(=O)OCCOc2ccc(C(C)(C)CC(C)(C)C)cc2)cc1  growth inhibition                %        -6.2
 5                       CSc1nsc(SC)c1C(N)=O  growth inhibition                %        12.5
 6  N#CC1C(=O)NC(=S)NC1c1ccc(Cl)c(Cl)c1 (configuration not stated)  growth inhibition                %       -19.6
 7              c1ccc(-c2ccccc2NC2=NCCO2)cc1  growth inhibition                %       -25.1
 8                 Cc1ccc2cccc(OCC(=O)O)c2n1  growth inhibition                %        3.45
 9               S=C1N=C(Cl)/C(=C\c2ccco2)N1  growth inhibition                %         4.2
10  Cc1c2c(cc3c(=O)ccn(CCN(C)C)c13)c(=O)ccn2CCN(C)C  growth inhibition                %        14.3
11  CCCCOC(=O)CC(C(=O)OCCCC)N1CCNCC1 (configuration not stated)  growth inhibition                %       -50.6
12  Cc1cc2c(cc1C)-c1nn(-c3ccccc3)c(-c3ccc(Cl)cc3)c1CCO2  growth inhibition                %        17.9

* * *

- method.summary: NCI Yeast Anticancer Drug Screen. Data for the bub3 strain (AID 167)
- condition.summary: S. cerevisiae bub3 mutant strain, at 50.0 µM
About 79,000 compounds went through this panel and 15% of them were active in at least one assay; those are over-represented in the sample as a whole. Active and inactive are the calls of the source. Cut-off read from the data, not from the text of the source: active = growth inhibition above about 70%; inactive = the rest.
Outcome codes: true for active, false for inactive

> print(dat)
                                    molecule  answer.label
 1   CCCCOC(=O)c1ccc(OC(=O)Nc2cccc(Cl)c2)cc1          true
 2  O=C(O)c1ccccc1C(=O)OCC1CCCc2ccccc21 (stereo not drawn)         false
 3                 COc1ccc(Cc2ccc(CO)cc2)cc1         false
 4               O=C(O)C(CCC1CCC=CCC1)C(=O)O         false
 5  COc1ccc2c(c1)/C(=C/c1cc(OC)c(OC)c(OC)c1)C(=O)N2         false
 6  CC1(c2ccc(Cl)cc2)NC(=O)N(CC(N)=O)C1=O (stereo not drawn)         false
 7                  CCOC(=O)c1c(C)cc2ccccn12         false
 8  c1ccc(N=C2N=c3ccccc3=C2c2c(Nc3ccccc3)[nH]c3ccccc23)cc1         false
 9  OCC1COc2ccc(Cl)cc2O1 (stereo not drawn) (tested in a mixture with another compound)         false
10  Cc1ccc(S(=O)(=O)C2(NC(=O)c3ccc(Cl)cc3)CC2)cc1         false
11  O=C1NCC(c2ccccc2)(C2CC2)O1 (stereo not drawn)         false
12  CCOc1c(N=Nc2ccc([N+](=O)[O-])cc2)c(C)nn1C(N)=S         false
13  CC(C)c1cc(C(C)C)c(Cc2c(C(C)C)cc(C(C)C)cc2C(C)C)c(C(C)C)c1         false
14  COc1cc(CC2COC(=O)C2Cc2ccc(O)c(OC)c2)ccc1O (stereo not drawn)         false
15  O=c1[nH]c(=S)[nH]c2ncn(C3OC(CO)C(O)C3O)c12 (stereo not drawn)         false
16               COc1ccc(CCNC(=O)CC(C)=O)cc1         false
17  N#C/C(=C/n1c(=S)sc2ccccc21)c1nc2ccccc2s1         false
18  CN(C)c1nc(OC2C(C(O)CO)OC3OC(C)(C)OC32)nc(N(C)C)n1 (stereo not drawn)         false
19  O=C(Nc1ccc(C2=NCCN2)cc1)c1ccc(C(=O)Nc2ccc(C3=NCCN3)cc2)cc1         false
20             Cc1cc(C(C)(C)CC(=O)O)cc(C)c1C         false
21  COC(=O)[C@@H]1[C@H](O)CC[C@H]2[C@@]1(C)CC[C@@H](C)[C@]2(COC(C)=O)CC(=O)c1ccoc1         false
22  COC1CCC2(C)C3CCC4C(=CCC5C(C)(C)C(=O)CCC45C)CC3(C)CCC2C1(C)C (stereo not drawn)         false
23  O=S(=O)(O)c1cccc(/C(=N\Nc2ccccn2)c2ccccn2)c1         false
